B1: library; a variant is named by its letters at N, in order (parent)
chain: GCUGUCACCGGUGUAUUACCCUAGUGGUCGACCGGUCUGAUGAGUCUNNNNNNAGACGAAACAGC

Variants of: B1
Experiment: normalized RNA/DNA level without ligand (relative to sTRSVctl = 100) (log10 (% of sTRSVctl)); ligand: hypoxanthine (xanthine aptamer); higher = less ribozyme self-cleavage, higher mRNA level
Details: HEK293T, reporter: mCherry (pCS4076), ligand present: no
measured quantity: normalized RNA/DNA level without ligand (log10)
Returns: the value as a bare number; no unit string appended.

AUCAGA ... 1.83
ACCCGA ... 1.75
CUUUGG ... 1.58
CAUCGC ... 1.9
UUCCGG ... 1.9

In: I have this variant here, `AUCUUA` , and I need its recorded normalized RNA/DNA level without ligand (log10).
Out: 1.83

In: // normalized RNA/DNA level without ligand (log10) lookup, key: `CCUUUG`
Out: 1.81

Each recorded value in this set is attributed to the supplement of paper PMC6757056.
